biological target: SLK (Homo sapiens, UniProt Q9H2G2); test: biochemical
Sequence (Q9H2G2 34-292): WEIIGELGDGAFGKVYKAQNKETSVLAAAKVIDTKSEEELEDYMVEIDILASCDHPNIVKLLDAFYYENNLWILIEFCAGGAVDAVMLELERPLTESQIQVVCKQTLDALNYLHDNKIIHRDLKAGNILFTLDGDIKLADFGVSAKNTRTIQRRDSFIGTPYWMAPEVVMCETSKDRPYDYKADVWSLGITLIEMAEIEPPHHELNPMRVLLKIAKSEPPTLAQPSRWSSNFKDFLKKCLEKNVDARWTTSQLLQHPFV
Just so you know, the groups by Ki go like this: group 1: < 0.4 µM; group 2: ≥ 0.4 µM and < 1 µM; group 3: ≥ 1 µM

Answered examples (8):
1. C#Cc1ccc(F)c(Nc2ncnc3ccc(I)cc23)c1 [compound 95, 95] ... group 3
2. C#Cc1cc(Nc2ncnc3cc(C#N)ccc23)ccc1F [compound 89, 89] ... group 2
3. C#Cc1cccc(Nc2ncnc3ccc(I)cc23)c1F [compound 96, 96] ... group 3
4. C#Cc1cc(Nc2ncnc3cc(OC)c(OC)cc23)ccc1Cl [compound 102, 102] ... group 1
5. C#Cc1cccc(Nc2ncnc3cc(OC)c(OC)cc23)c1F [compound 100, 100] ... group 2
6. C#Cc1cc(Nc2ncnc3cc(C#N)ccc23)ccc1Cl [compound 90, 90] ... group 3
7. C#Cc1ccc(F)c(Nc2ncnc3cc(OC)c(OC)cc23)c1 [compound 99, 99] ... group 1
8. C#Cc1cccc(Nc2ncnc3cc(C#N)ccc23)c1F [compound 88, 88] ... group 3

# evaluate next
Prompt: Just checking, what class would you give C#Cc1cc(Nc2ncnc3cc(OC)c(OC)cc23)ccc1F [compound 101, 101] here?
Response: group 1
